# Tested on: DU-145 prostate
# Assay Comment: NCI tumour cell line growth inhibition, 48 h
TGI: recorded values

Molecule	TGI
Cn1c(COC(=O)Nc2ccccc2)c(COC(=O)Nc2ccccc2)c2ccc3cc(Cl)c(Cl)cc3c21	31 µM
CCC1(C)C=Cc2c(cc(O)c3c(=O)c4ccccc4n(C)c23)O1 (stereo not given)	> 10 µM
C[C@]12CC[C@@H]3c4cc(OCC(F)(F)F)c(O)cc4/C(=N/O)C[C@H]3[C@@H]1CC[C@@H]2O	> 54 µM
CC(C)(C)OC(=O)NCCCNC1(c2cc3ccccc3s2)CCCCC1	32.2 µM
CSc1ncnc2c1ncn2CCC#N	> 100 µM
CCOC(=O)NC(Nc1cccc(C(F)(F)F)c1)(C(F)(F)F)C(F)(F)F	> 100 µM
ClCC[N+]12CC[N+](CCCl)(CC1)C2	> 100 µM
CC(=O)N[C@H]1CSSC[C@@H](C(N)=O)NC(=O)[C@H](C(C)C)NC(=O)[C@H](C)NC(=O)[C@H](Cc2cnc[nH]2)NC1=O	> 100 µM
On1c(-c2ccccc2)nc2ccccc2c1=S	> 100 µM
CC(C)(C[C@H]1CN(S(=O)(=O)c2cccc(C(F)(F)F)c2)c2cc(-c3cc(F)cc(OC(F)F)c3)ccc2O1)C(=O)O	25.3 µM
C[N+]12CCCCC1C(CN1C(=O)Cc3c4ccccc4c(c4ccccc34)CC1=O)CCC2 (stereo not given)	> 100 µM
CC(C)(C)C(=O)CC1=Nc2ccccc2SC1(O)CC(=O)C(C)(C)C (stereo not given)	> 100 µM
CC1=CC(C/C(C)=C/COc2ccc3ccc(=O)oc3c2)OC1=O (stereo not given)	> 100 µM
O=C1NC(=O)C(CC2CCCCCCCCCCC2=O)C(=O)N1 (stereo not given)	> 100 µM
Cc1cc(S(=O)(=O)Nc2nc3cc(-c4ccc(Cl)cc4)sc3c(=O)n2N)c(S)cc1Cl	> 100 µM
O=c1cc(NC2CCN(CCCc3ccccc3)CC2)c2cc(Cl)ccc2o1	29.3 µM
COc1nc2nccnc2c(=O)n1C	> 10 µM
Clc1ccc(C=Nc2ccc3c(c2)Cc2ccccc2-3)c(Cl)c1	> 100 µM
Cc1cc(NCc2ccccc2)c2ccccc2[n+]1CCCCCCCCCC[n+]1c(C)cc(NCc2ccccc2)c2ccccc21	10.9 µM
O=C(/C=C\c1ccc(NCc2ccc(C(=O)O)cc2)cc1)CCl	31.9 µM

====

TGI: recorded values
# Tested on: HT29 colon
# Assay Comment: NCI tumour cell line growth inhibition, 48 h
Endpoint Name: TGI

Molecule	Recorded Result
CC12CCC(O)CC1CCC1C2CCC2(C)C(C(=O)CC(O)C(F)(F)F)CCC12 (stereo not drawn)	19.6 µM
CC1=C(CO)C(=O)O[C@@H]([C@@H](CO)[C@H]2CCC3C4C[C@@H](O)[C@@]5(O)CC=CC(=O)[C@]5(C)C4CC[C@@]32C)C1 (stereo partly drawn)	> 100 µM
CC1CCCC(CC(=O)O)(CC(=O)O)C1 (stereo not drawn)	> 100 µM
CC(=O)[C@@]1(O)CC[C@H]2[C@@H]3C[C@H](C)C4=CC(=O)C=C[C@]4(C)[C@@]3(F)[C@@H](O)C[C@@]21C	> 100 µM
CC(C)(C[C@H]1CN(S(=O)(=O)c2cccc(C(F)(F)F)c2)c2cc(-c3cc(F)cc(OC(F)F)c3)ccc2O1)C(=O)O	15.6 µM
CSC(C1c2ccccc2N(c2ccc(C)cc2)c2[nH]c(=O)n(C)c(=O)c21)S(=O)(=O)c1ccc(C)cc1 (stereo not drawn)	> 100 µM
ClCC[N+]12CC[N+](CCCl)(CC1)C2	> 100 µM
CN(C)c1cc[c]([Sn]([c]2ccc(N(C)C)cc2)([c]2ccc(N(C)C)cc2)[c]2ccc(N(C)C)cc2)cc1	12.7 µM

====

# Test system: HL-60(TB) leukemia
# Assay Comment: NCI tumour cell line growth inhibition, 48 h
Endpoint Name: log10 TGI (log10 of the value in µM)

Compound	Recorded Result
O=C(O)/C=c1/c2ccccc2n2nc3ccccc3c12	1.83
CC1(C)[C@@H](OC(N)=O)[C@H]2O[C@H]2[C@]2(C=O)[C@H]3CC[C@]4(C)[C@@H](c5ccc(=O)oc5)[C@@H](Cl)C[C@]4(O)C3=CC[C@@H]12	-1.88
COc1cc(NC(C)CCCN)c2nccc(C)c2c1 (centres undefined)	1.32
Nc1ccc(-c2nc3ccc(Cc4ccc5nc(-c6ccc(N)cc6)[nH]c5c4)cc3[nH]2)cc1	1.57
C=CCc1ccc(Oc2cc(CC=C)c3c(c2O)O[C@@H](CO)[C@H]3c2ccc(O)c(-c3cc(CC=C)ccc3O)c2)cc1	1.74

====

# Test system: HCC-2998 colon
# Assay Comment: NCI tumour cell line growth inhibition, 48 h
TGI: recorded values
Endpoint Name: TGI

Molecule	Recorded Result
C1C[OH+]CC[OH+]CC[OH+]CC[OH+]CC[OH+]1.[Cl-].[V]	> 100 µM
Oc1cccc(-c2nc3cc(F)ccc3s2)c1	23.2 µM
CC1=C(CO)C(=O)O[C@@H]([C@@H](CO)[C@H]2CCC3C4C[C@@H](O)[C@@]5(O)CC=CC(=O)[C@]5(C)C4CC[C@@]32C)C1 (some centres undefined)	> 100 µM
COc1ccc(CC2NCCc3cc(OC)c(OC)cc32)cc1Br (centres undefined)	34.6 µM
O=C1[C@@H]2C(c3ccccc3F)=NO[C@@H]2C(=O)N1c1ccc(Cc2ccc(N3C(=O)[C@H]4C(c5ccccc5F)=NO[C@H]4C3=O)cc2)cc1	> 100 µM
CC(=O)[C@@]1(O)CC[C@H]2[C@@H]3C[C@H](C)C4=CC(=O)C=C[C@]4(C)[C@@]3(F)[C@@H](O)C[C@@]21C	> 100 µM
Cn1c2ccccc2c(=NNc2cccc(C(=O)O)c2)c2ccccc21	14.9 µM
COc1cc(C(=O)c2cc(C)c3[nH]c4ccc(C)cc4c3c2C)cc(OC)c1OC	> 100 µM
CCOC(=O)NC(Nc1ccc([N+](=O)[O-])cc1)(C(F)(F)F)C(F)(F)F	> 100 µM

====

# Test system: MALME-3M melanoma
# Assay Comment: NCI tumour cell line growth inhibition, 48 h
TGI: recorded values
Endpoint Name: TGI

Substance Smiles	Endpoint Name	Recorded Result
COc1ccc(OC)c2c(C(=O)O)c(Cc3ccccc3)ccc12	TGI	> 100 µM
Clc1ccc(C=Nc2ccc3c(c2)Cc2ccccc2-3)c(Cl)c1	TGI	> 100 µM
O=C1CSC(/C(=N/Nc2ccccc2)c2nc3ccccc3[nH]2)=N1	TGI	> 100 µM
O=C(O)/C=c1/c2ccccc2n2nc3ccccc3c12	TGI	96.2 µM
O=C(CN(c1ccccc1)c1ccccc1)n1nnc2ccccc21	TGI	> 100 µM
O=c1cccc(C#CC#CC2=CCCCC2)o1	TGI	13.8 µM
Cn1c(=O)c(Cc2ccccc2F)cc2cnc(NC3CCOCC3)nc21	TGI	> 25 µM
Cc1ccc(S(=O)(=O)NC(=O)N[C@@H](Cc2cnc[nH]2)C(=O)O)cc1	TGI	> 100 µM
C#C[C@]1(O)CC[C@H]2[C@@H]3CCC4=C/C(=N/OC(=O)c5cccc6c(=O)c7ccccc7[nH]c56)CC[C@@H]4[C@H]3CC[C@@]21C	TGI	> 100 µM
COc1ccc(/C=C/c2cc(OC)cc(=O)o2)cc1	TGI	> 100 µM
COc1ccc2c(cnc3c4cc(OC)c(OC)cc4ccc23)c1	TGI	> 100 µM

====

# Test system: SR leukemia
# Assay Comment: NCI tumour cell line growth inhibition, 48 h

Compound	TGI
CC1=C(CO)C(=O)O[C@@H]([C@@H](CO)[C@H]2CCC3C4C[C@@H](O)[C@@]5(O)CC=CC(=O)[C@]5(C)C4CC[C@@]32C)C1 (some centres undefined)	> 100 µM
Cc1ccc2[nH]c(O)c(N=Nc3ccc(S(N)(=O)=O)cc3)c2c1	> 25 µM
O=C(O)/C=c1/c2ccccc2n2nc3ccccc3c12	49.2 µM
COC(=O)C1=C(C)NC(C)=C(C(=O)OC)C1c1nc2sccn2c1[N+](=O)[O-]	> 100 µM
COc1ccc(/C=C/C(=O)C(CC2CCC2)C(=O)/C=C/c2ccc(OC)c(OC)c2)cc1OC	> 100 µM
O=C1[C@@H]2C(c3ccccc3F)=NO[C@@H]2C(=O)N1c1ccc(Cc2ccc(N3C(=O)[C@H]4C(c5ccccc5F)=NO[C@H]4C3=O)cc2)cc1	> 100 µM
C1CCC([PH+](C2CCCCC2)C2CCCCC2[PH+](C2CCCCC2)C2CCCCC2)CC1.O=C(C1[CH-]CCCC1)C1CCCC[N-]1.[Au] (centres undefined)	> 100 µM
N#Cc1cccnc1Cl	> 100 µM
COc1ccc2c(cnc3c4cc(OC)c(OC)cc4ccc23)c1	> 100 µM

====

# Tested on: HT29 colon
# Assay Comment: NCI tumour cell line growth inhibition, 48 h; in the data active means GI50 below about 0.43 µM; inactive means the rest
Labels: t for active, f for inactive

Compound	Qualitative Label
CN(C)CCN1C(=O)c2ccc3c4c(ccc(c24)C1=O)C(=O)N(CCN=C=S)C3=O	t
O=c1c2ccccc2c(=O)c2c1[nH]c1c(-c3ccccc3)c(-c3ccccc3)c(=O)c12	f
Cc1ccc(-c2nc3ccc(Cl)cc3c(=O)n2N2C(=O)CSC2c2ccccc2Cl)cc1 (stereo not given)	f
Nc1ccc(-c2nc3ccc(Cc4ccc5nc(-c6ccc(N)cc6)[nH]c5c4)cc3[nH]2)cc1	f
C#Cc1c(I)n(C2OC(CO[Si](C)(C)C(C)(C)C)C3OC(C)(C)OC32)c(=O)[nH]c1=O (stereo not given)	f
O=c1cc(NC2CCN(CCCc3ccccc3)CC2)c2cc(Cl)ccc2o1	f
CC1=C(C(=O)Nc2ccc(F)c(Cl)c2)C(c2cccc(O)c2)NC(=O)N1 (stereo not given)	f
Nc1ccn(C2CCC(CO)O2)c(=O)n1 (stereo not given)	f
CN(C)C(=O)[C@H](O)[C@H](Cc1ccccc1)NC(=O)c1cc2cc(Cl)ccc2[nH]1	f
Cc1ccc2[nH]c(O)c(N=Nc3ccc(S(N)(=O)=O)cc3)c2c1	f
